protocol text: in vivo
test settings: rat, in vivo, po, 3.75 g/kg, AUC0–∞, Table 6, rat plasma, oral wheat bran-processed Atractylodis Rhizoma 3.75 g/kg
reported metric: AUC(0-inf) (ng·h/mL)
Quick note: give the figure in ng·h/mL, leave out the unit.

Per the records, this compound ( CC(C)(OC1OC(CO)C(O)C(O)C1O)C1CCC(O)(CO)C2CC(=O)C(C)(O)C2C1 (stereo not shown) [Atractyloside A] ) has AUC(0-inf) equal to 325

###

protocol text: in vivo
test settings: rat, in vivo, po, 3.75 g/kg, Cmax, rat plasma, oral wheat bran-processed Atractylodis Rhizoma 3.75 g/kg, mean ± SD, n = 5
reported metric: Cmax (ng/mL)
Quick note: give the figure in ng/mL, leave out the unit.

Per the records, this compound ( CC(C)(OC1OC(CO)C(O)C(O)C1O)C1CCC(O)(CO)C2CC(=O)C(C)(O)C2C1 (stereo not shown) [Atractyloside A] ) has Cmax equal to 69.4
